B1: FAM189A2 (parent)
chain: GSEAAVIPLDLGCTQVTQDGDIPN

- Variants of: B1
- experiment-notes: protein stability index of a GFP-peptide fusion (GPS, HEK-293T) (PSI 1-6); higher = more stable;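 also: lentivirally expressed fusions sorted by FACS into six bins by GFP to DsRed ratio, PSI derived from sequencing read proportions per bin multiplied by bin number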
- condition-context: c terminus: a fixed tail appended
Classification field: met = protein stability index at or over 5; not met = protein stability index under 5.

Could you verify whether the entry "A4M" shows protein stability index of no less than 5?
not met

Could you verify whether the entry "P23F" shows protein stability index of no less than 5?
not met

Could you verify whether the entry "Q15W" shows protein stability index of no less than 5?
not met

Could you verify whether the entry "V6N" shows protein stability index of no less than 5?
met

Could you verify whether the entry "N24A" shows protein stability index of no less than 5?
met

Could you verify whether the entry "A5Y" shows protein stability index of no less than 5?
not met

Could you verify whether the entry "G12A" shows protein stability index of no less than 5?
met

Could you verify whether the entry "Q18Y" shows protein stability index of no less than 5?
not met

Could you verify whether the entry "P23K" shows protein stability index of no less than 5?
met

Could you verify whether the entry "L9C" shows protein stability index of no less than 5?
met

Could you verify whether the entry "G20E" shows protein stability index of no less than 5?
met

Could you verify whether the entry "L11C" shows protein stability index of no less than 5?
met

Could you verify whether the entry "G20I" shows protein stability index of no less than 5?
met

Could you verify whether the entry "S2Q" shows protein stability index of no less than 5?
met

Could you verify whether the entry "G12P" shows protein stability index of no less than 5?
met

Could you verify whether the entry "L9P" shows protein stability index of no less than 5?
met

Could you verify whether the entry "P8W" shows protein stability index of no less than 5?
not met

Could you verify whether the entry "Q15T" shows protein stability index of no less than 5?
met

Could you verify whether the entry "D19K" shows protein stability index of no less than 5?
met

Could you verify whether the entry "G20H" shows protein stability index of no less than 5?
met

Could you verify whether the entry "P8M" shows protein stability index of no less than 5?
not met

Could you verify whether the entry "A5W" shows protein stability index of no less than 5?
not met

Could you verify whether the entry "D10P" shows protein stability index of no less than 5?
met

Could you verify whether the entry "Q15Y" shows protein stability index of no less than 5?
not met

Could you verify whether the entry "Q15A" shows protein stability index of no less than 5?
met

Could you verify whether the entry "D10S" shows protein stability index of no less than 5?
met

Could you verify whether the entry "P23L" shows protein stability index of no less than 5?
met

Could you verify whether the entry "G1T" shows protein stability index of no less than 5?
met

Could you verify whether the entry "L11S" shows protein stability index of no less than 5?
met

Could you verify whether the entry "G1C" shows protein stability index of no less than 5?
not met

Could you verify whether the entry "V6Q" shows protein stability index of no less than 5?
met

Could you verify whether the entry "L9V" shows protein stability index of no less than 5?
met

Could you verify whether the entry "A5N" shows protein stability index of no less than 5?
met

Could you verify whether the entry "V16D" shows protein stability index of no less than 5?
met

Could you verify whether the entry "D21H" shows protein stability index of no less than 5?
not met

Could you verify whether the entry "G12S" shows protein stability index of no less than 5?
not met

Could you verify whether the entry "L11P" shows protein stability index of no less than 5?
met

Could you verify whether the entry "Q18N" shows protein stability index of no less than 5?
not met

Could you verify whether the entry "I22T" shows protein stability index of no less than 5?
met

Could you verify whether the entry "D21F" shows protein stability index of no less than 5?
not met

Could you verify whether the entry "G1A" shows protein stability index of no less than 5?
met

Could you verify whether the entry "E3V" shows protein stability index of no less than 5?
not met

Could you verify whether the entry "D21M" shows protein stability index of no less than 5?
not met

Could you verify whether the entry "N24C" shows protein stability index of no less than 5?
met

Could you verify whether the entry "I7P" shows protein stability index of no less than 5?
met

Could you verify whether the entry "Q18A" shows protein stability index of no less than 5?
met

Could you verify whether the entry "Q15G" shows protein stability index of no less than 5?
met

Could you verify whether the entry "T14Q" shows protein stability index of no less than 5?
met

Could you verify whether the entry "V16T" shows protein stability index of no less than 5?
met

Could you verify whether the entry "C13D" shows protein stability index of no less than 5?
met

Could you verify whether the entry "N24Q" shows protein stability index of no less than 5?
met

Could you verify whether the entry "A4C" shows protein stability index of no less than 5?
not met

Could you verify whether the entry "C13W" shows protein stability index of no less than 5?
not met

Could you verify whether the entry "Q18D" shows protein stability index of no less than 5?
met

Could you verify whether the entry "Q18I" shows protein stability index of no less than 5?
not met

Could you verify whether the entry "E3H" shows protein stability index of no less than 5?
not met

Could you verify whether the entry "C13E" shows protein stability index of no less than 5?
met

Could you verify whether the entry "D10C" shows protein stability index of no less than 5?
not met

Could you verify whether the entry "G20F" shows protein stability index of no less than 5?
not met

Could you verify whether the entry "G1P" shows protein stability index of no less than 5?
met

Could you verify whether the entry "L11K" shows protein stability index of no less than 5?
met

Could you verify whether the entry "Q15N" shows protein stability index of no less than 5?
met

Could you verify whether the entry "S2N" shows protein stability index of no less than 5?
met

Could you verify whether the entry "T17S" shows protein stability index of no less than 5?
met

Could you verify whether the entry "I7D" shows protein stability index of no less than 5?
met

Could you verify whether the entry "D19C" shows protein stability index of no less than 5?
not met

Could you verify whether the entry "Q15L" shows protein stability index of no less than 5?
not met

Could you verify whether the entry "G12T" shows protein stability index of no less than 5?
met

Could you verify whether the entry "C13A" shows protein stability index of no less than 5?
met

Could you verify whether the entry "D10T" shows protein stability index of no less than 5?
met

Could you verify whether the entry "A5S" shows protein stability index of no less than 5?
met

Could you verify whether the entry "I22V" shows protein stability index of no less than 5?
met

Could you verify whether the entry "Q15C" shows protein stability index of no less than 5?
met

Could you verify whether the entry "N24W" shows protein stability index of no less than 5?
not met

Could you verify whether the entry "P23A" shows protein stability index of no less than 5?
met

Could you verify whether the entry "Q15K" shows protein stability index of no less than 5?
met

Could you verify whether the entry "P23E" shows protein stability index of no less than 5?
met

Could you verify whether the entry "T17E" shows protein stability index of no less than 5?
met

Could you verify whether the entry "Q18P" shows protein stability index of no less than 5?
met

Could you verify whether the entry "Q18F" shows protein stability index of no less than 5?
not met
